A short record of pIC50 observed with GLP (982–1266) (Homo sapiens) follows.
Sequence (Q9H9B1 982-1266): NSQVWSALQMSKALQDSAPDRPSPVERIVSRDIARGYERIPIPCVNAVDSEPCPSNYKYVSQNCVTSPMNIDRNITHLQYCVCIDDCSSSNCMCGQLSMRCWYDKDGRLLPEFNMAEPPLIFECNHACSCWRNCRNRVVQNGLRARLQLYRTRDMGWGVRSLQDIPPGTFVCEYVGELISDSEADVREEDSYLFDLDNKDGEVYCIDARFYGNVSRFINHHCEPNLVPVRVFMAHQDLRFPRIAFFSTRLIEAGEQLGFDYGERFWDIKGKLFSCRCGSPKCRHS
Answers are plain numbers, as −log10 of the molar value.

COc1cc2c(cc1OCCCN1CCCC1)N=C(N)C21CCCC1 ... 6.48

Would you kindly look at the next entry?
Input line: # lookup: pIC50 of COc1cc2c(cc1OCCCN1CCCC1)N=C(N)C2(C)C
Output line: 6.33

###

A short record of pIC50 observed with His-Spindlin1(49–262) (Homo sapiens, UniProt Q9Y657) follows.
Sequence (Q9Y657 49-262): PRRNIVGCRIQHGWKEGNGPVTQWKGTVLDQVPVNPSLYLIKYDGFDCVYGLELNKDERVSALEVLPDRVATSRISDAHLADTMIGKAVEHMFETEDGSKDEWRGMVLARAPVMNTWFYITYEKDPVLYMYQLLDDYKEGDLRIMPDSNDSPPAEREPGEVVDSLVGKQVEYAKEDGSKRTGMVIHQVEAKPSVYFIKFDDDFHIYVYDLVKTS
Answers are plain numbers, as −log10 of the molar value.

Study these solved cases before continuing.
COc1cc2c(cc1OCCCN1CCC(O)C1)N=C(N)C21CCCC1 (racemic) [1q (rac)] ... 6.23
COc1cc2c(cc1OCCCN1CC[C@H](O)C1)N=C(N)C21CCCC1 [1q (S)] ... 6.32
CC(C)Oc1cc2c(cc1OCCCN1CCCC1)N=C(N)C21CCC1 [1m] ... 5.48
CCOc1cc2c(cc1OCCCN1CCCC1)N=C(N)C21CCCCC1 [1l] ... 6.25
COc1cc2c(cc1OCCCN1CCCC1)N=C(N)C2(C)C [1p] ... 6.80

Hey, can you go through the list below and give me pIC50 for every item?
1. COc1c(OCCCN2CCCC2)cc2c(c1OC)C1(CCCC1)C(N)=N2 [1j]
2. COc1cc2c(cc1OCCCN1CCC(CO)C1)N=C(N)C21CCCC1 (stereo not shown) [1u]
3. CCC1(C)C(N)=Nc2cc(OCCCN3CCCC3)c(OC)cc21 (stereo not shown) [1r]
4. COc1c(OCCCN2CCCC2)cc2c(c1C(C)=O)C1(CCCC1)C(N)=N2 [1k]

Output line:
1: 5.60; 2: 5.90; 3: 6.39; 4: 4.93

Hey, can you go through the list below and give me pIC50 for every item?
1. CCC1(C)C(N)=Nc2cc(OCCCN3Cc4ccccc4C3)c(OC)cc21 (stereo not shown) [1s]
2. COc1c(OCCCN2CCCC2)cc2c(c1Cl)C1(CCCC1)C(N)=N2 [1i]
3. CCC1(CC)C(N)=Nc2cc(OCCCN3CCCC3)c(OC)cc21 [1o]
4. COc1cc2c(cc1OCCCN1CC[C@@H](O)C1)N=C(N)C21CCCC1 [1q (R)]
5. CCC1(C)C(N)=Nc2cc(OCCCN3CC[C@@H](C)C3)c(OC)cc21 (stereo partly shown) [1t]
6. COc1c(OCCCN2CCCC2)cc2c(c1C#N)C1(CCCC1)C(N)=N2 [1h]

Output line:
1. 6.44
2. 5.80
3. 5.92
4. 6.33
5. 6.33
6. 5.41

Input line: # lookup: pIC50 of COc1cc2c(cc1OCCCN1CCCC1)N=C(N)C21CCCCC1 [1n]
Output line: 6.59

###

- target_system: Human G9a (913–1193) (Homo sapiens, UniProt Q96KQ7)
- Construct: Catalytic domains of Human G9a (913–1193); made in house
- Sequence (Q96KQ7 913-1193): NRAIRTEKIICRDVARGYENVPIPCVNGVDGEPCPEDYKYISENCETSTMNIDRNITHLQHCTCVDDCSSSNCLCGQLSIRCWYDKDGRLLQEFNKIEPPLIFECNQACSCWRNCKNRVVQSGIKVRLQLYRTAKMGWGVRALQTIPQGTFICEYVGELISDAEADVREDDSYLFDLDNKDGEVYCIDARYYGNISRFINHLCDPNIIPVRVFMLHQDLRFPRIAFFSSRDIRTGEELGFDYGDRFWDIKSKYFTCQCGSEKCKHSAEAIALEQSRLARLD
- test: Coupled enzyme fluorescent histone methyltransferase assay (SAM-SAH conversion)
- Assay type: biochemical
- run_parameters: fluorescence based coupled enzyme assay
- Description: Full length of S. solfataricus S-adenosylhomocysteine hydrolase (SAHH) was cloned, expressed, and purified using the published protocol. The assay was performed using the previously published protocol. Tested compounds were pre-dissolved in assay buffer (20 mM HEPES pH 7.5, 50 mM NaCl, 0.01% Triton X-100, 3 mM MgCl2, 0.1 mg/mL BSA) with 5 μM of purified SAHH, 1 unit of ADA, 10 μM of H3, and 5 nM of either G9a or GLP as 30 μL in black 96-well plate. […]
pIC50: −log10 of the molar value.
Rule: pIC50 under 6 gives label 0, otherwise label 1.

Reference set, count: 9
COc1cc2c(cc1OCCCN1CCCC1)N=C(N)C21CCCC1 [1f] ... label 1
COc1cc2c(cc1OCCCN1CCC(O)C1)N=C(N)C21CCCC1 (racemic) [1q (rac)] ... label 0
CCC1(C)C(N)=Nc2cc(OCCCN3CCCC3)c(OC)cc21 (stereo not drawn) [1r] ... label 0
CCC1(C)C(N)=Nc2cc(OCCCN3Cc4ccccc4C3)c(OC)cc21 (stereo not drawn) [1s] ... label 0
COc1cc2c(cc1OCCCN1CCC(CO)C1)N=C(N)C21CCCC1 (stereo not drawn) [1u] ... label 0
COc1cc2c(cc1OCCCCN1CCCC1)N=C(N)C21CCCCC1 [1c] ... label 0
CCC1(C)C(N)=Nc2cc(OCCCN3CC[C@@H](C)C3)c(OC)cc21 (stereo partly drawn) [1t] ... label 0
COc1c(OCCCN2CCCC2)cc2c(c1Cl)C1(CCCC1)C(N)=N2 [1i] ... label 0
CCC1(CC)C(N)=Nc2cc(OCCCN3CCCC3)c(OC)cc21 [1o] ... label 0

Input line: Could you tell me if the measured pIC50 of CCOc1cc2c(cc1OCCCN1CCCC1)N=C(N)C21CCCC1 [1g] reaches 6 or more?
Output line: label 1
